# Test system: RXF 393 renal
# Experiment Description: NCI-60 one-dose screen, 48 h (100 = growth as untreated, 0 = no growth, -100 = all killed)
# Assay Context: 10 µM unless noted
About 83,000 compounds went through this panel and 20% of them were active in at least one assay; those are over-represented in the sample as a whole. The source made the active and inactive calls. The calls were made as follows: active = growth percent below 10; inactive = the rest.

{"columns": ["Molecule", "growth"],
 "data": [
  ["COc1ccccc1/C=C/C(=O)c1nnn(-c2ccc(F)cc2)c1C", "40.7% (inactive)"],
  ["COc1ccc(C2CC(c3cccc(OCCCCOc4cccc(C5=NN(C(C)=O)C(c6ccc(OC)cc6)C5)c4)c3)=NN2C(C)=O)cc1 (stereo unspecified)", "95.2% (inactive)"],
  ["Cc1cc(NS(=O)(=O)c2ccc(NC(=O)CSc3nc4ccccc4c(=O)n3-c3ccccc3)cc2)no1", "93.8% (inactive)"],
  ["CCOC(=O)c1c(NC(=O)c2cccc(C(F)(F)F)c2)sc2c1CCC(=O)C2", "25.6% (inactive)"],
  ["CC(=O)OC[C@@]12Oc3c(cccc3-c3ccc(O)c4c3O[C@]3(COC(C)=O)C(=C4O)C(=O)C[C@H](C)[C@@H]3OC(C)=O)C(O)=C1C(=O)C[C@H](C)[C@@H]2OC(C)=O", "11.9% (inactive)"],
  ["COc1ccc(-c2nc(C#N)c(N3CCC(S(=O)(=O)N4CCOCC4)CC3)o2)cc1", "108% (inactive)"]
]}

---

# System: 786-0 renal
# Experiment Description: NCI-60 one-dose screen, 48 h (100 = growth as untreated, 0 = no growth, -100 = all killed)
# Assay Context: 10 µM unless noted
About 83,000 compounds went through this panel and 20% of them were active in at least one assay; those are over-represented in the sample as a whole.
// label = fulfilled if growth is not less than 80%, otherwise not fulfilled

{"columns": ["Smiles Record", "Study Target", "Class"],
 "data": [
  ["Cc1csc(/N=C(N)/N=C(\\N)c2cccc(C#N)c2)n1", "786-0 renal", "fulfilled"],
  ["CC1CCN(CC(=O)Nn2c(COc3ccccc3)nc3ccccc3c2=O)CC1", "786-0 renal", "fulfilled"],
  ["Cn1c(SCC(=O)c2ccc(F)cc2)nc2ccccc2c1=O", "786-0 renal", "fulfilled"],
  ["O=C(/C=C/c1cccc(C(F)(F)F)c1)Nc1cccc(C(F)(F)F)c1", "786-0 renal", "not fulfilled"],
  ["CN1CCC[C@]2(C)[C@H]3CC[C@@H]4[C@@H]5[C@H]6OC[C@@]5(CCC6(C)C)CC[C@@]4(C)[C@]3(C)CC[C@H]2C1(C)C", "786-0 renal", "fulfilled"],
  ["COc1cc2oc(-c3cccc(NC(=O)c4cccc([N+](=O)[O-])c4)c3)cc(=O)c2c(OC)c1OC", "786-0 renal", "not fulfilled"],
  ["COc1ccc([C@@H]2C(=O)N(c3cc(OC)c(OC)c(OC)c3)[C@H]2c2ccc(OC)c(O)c2)cc1", "786-0 renal", "not fulfilled"]
]}

---

# System: IGROV1 ovarian
# Experiment Description: NCI-60 one-dose screen, 48 h
# Assay Context: 10 µM unless noted
Compounds without any hit were thinned out: in the full panel of roughly 83,000, 20% have a hit. The source made the active and inactive calls. Rule for the calls: active = growth percent below 10; inactive = the rest.
Possible outcomes: active, inactive

{"columns": ["Molecule", "Class"],
 "data": [
  ["C#C[C@]1(O)CC[C@H]2[C@@H]3CC=C4c5sc(Nc6ncccc6C)nc5CC[C@]4(C)[C@H]3CC[C@@]21C", "inactive"],
  ["CC(=C(c1ccc(OCCN(C)C)cc1)c1ccc(OCCN(C)C)cc1)c1ccc(Cl)cc1", "active"],
  ["N#Cc1c(-c2ccc(Br)cc2)cc(-c2c[nH]c3ccccc23)nc1N", "inactive"],
  ["Clc1cccc(/C=N/Nc2nc(N/N=C/c3cccc(Cl)c3)nc(N3CCOCC3)n2)c1", "inactive"],
  ["Cc1ccc2c(n1)C(=O)C(Cl)=C(Nc1ccc(C(=O)OC(C)(C)C)cc1)C2=O", "inactive"],
  ["N#Cc1c(-c2cccs2)cc(-c2cnccn2)nc1SCC(=O)N/N=C/c1ccncc1", "inactive"],
  ["O=C(CCCCCCNC(=O)C(O)(O)C(F)(F)F)Nc1ccc(Cl)cc1", "inactive"],
  ["CCCCCC[n+]1ccc(SCC(=O)n2ccc3ccccc32)c2ccccc21", "inactive"],
  ["CC1(C)CC[C@]23CC[C@]4(C)[C@H](CC[C@@H]5[C@@]6(C)CC[C@H](N)C(C)(C)[C@@H]6CC[C@]54C)[C@H]2[C@H]1OC3", "inactive"],
  ["O=S(=O)(NCCCNc1nccc(-c2[nH]c(-c3ccccc3)nc2-c2ccc(F)c(O)c2)n1)c1cccc2ccccc12", "inactive"],
  ["NC1=NC2(CCCC2)N(c2ccc(S(=O)(=O)Nc3nccs3)cc2)C(N)=N1", "inactive"],
  ["CN1c2ccccc2Sc2cc(/C=N/Nc3ccnc4cc(Cl)ccc34)ccc21", "inactive"],
  ["O=C(CCCCCCNC(=O)C(O)(O)C(F)(F)F)Nc1ccc(-c2ccccc2)cc1", "inactive"],
  ["CCCCCCCCCCCC(=O)NC(C)(C)C(=O)N1CCCC1C(=O)NC(C)(C)C(=O)NC(C)(C)C(=O)N1CCCC1C(=O)NC(C)(C)C(=O)NC(C)(C)C(=O)N1CCCC1C(=O)NC(C)C(=O)NCCC(=O)NC(C)C(=O)NC(C)(C)C(=O)NC(C)(C)C(=O)NC(C)(C)C(=O)NCCC(=O)NC(C)(C)C(=O)NC(C)(C)C(=O)NC(C)(C)C(=O)NC(C)C(=O)NCCC(=O)O (centres undefined)", "active"]
]}

Origin of values: PubChem BioAssay (NCI)
